- Tested On: Integrin alpha-IIb/beta-3 (Homo sapiens, UniProt P05106+P08514)
- Sequence (P05106 27-788 limits assumed): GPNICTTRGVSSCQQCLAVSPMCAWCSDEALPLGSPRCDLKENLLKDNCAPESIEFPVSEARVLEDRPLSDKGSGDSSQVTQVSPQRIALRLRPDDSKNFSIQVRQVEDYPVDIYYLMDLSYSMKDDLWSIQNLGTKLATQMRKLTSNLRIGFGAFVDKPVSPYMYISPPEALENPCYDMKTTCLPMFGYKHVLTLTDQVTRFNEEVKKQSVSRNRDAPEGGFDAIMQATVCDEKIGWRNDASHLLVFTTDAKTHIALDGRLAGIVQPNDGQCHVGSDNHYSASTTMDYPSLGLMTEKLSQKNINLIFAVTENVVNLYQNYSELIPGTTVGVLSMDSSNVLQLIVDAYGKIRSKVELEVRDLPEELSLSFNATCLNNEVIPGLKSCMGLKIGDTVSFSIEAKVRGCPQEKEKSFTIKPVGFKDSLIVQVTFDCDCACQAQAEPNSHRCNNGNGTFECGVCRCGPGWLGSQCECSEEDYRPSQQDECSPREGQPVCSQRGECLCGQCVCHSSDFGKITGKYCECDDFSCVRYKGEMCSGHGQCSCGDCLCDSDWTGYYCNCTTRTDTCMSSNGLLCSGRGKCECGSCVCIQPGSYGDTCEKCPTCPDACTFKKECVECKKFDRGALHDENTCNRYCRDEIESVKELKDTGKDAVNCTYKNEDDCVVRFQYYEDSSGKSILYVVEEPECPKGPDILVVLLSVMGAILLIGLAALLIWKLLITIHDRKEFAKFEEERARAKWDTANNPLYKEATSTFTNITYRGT
- Sequence (P08514 32-887 limits assumed): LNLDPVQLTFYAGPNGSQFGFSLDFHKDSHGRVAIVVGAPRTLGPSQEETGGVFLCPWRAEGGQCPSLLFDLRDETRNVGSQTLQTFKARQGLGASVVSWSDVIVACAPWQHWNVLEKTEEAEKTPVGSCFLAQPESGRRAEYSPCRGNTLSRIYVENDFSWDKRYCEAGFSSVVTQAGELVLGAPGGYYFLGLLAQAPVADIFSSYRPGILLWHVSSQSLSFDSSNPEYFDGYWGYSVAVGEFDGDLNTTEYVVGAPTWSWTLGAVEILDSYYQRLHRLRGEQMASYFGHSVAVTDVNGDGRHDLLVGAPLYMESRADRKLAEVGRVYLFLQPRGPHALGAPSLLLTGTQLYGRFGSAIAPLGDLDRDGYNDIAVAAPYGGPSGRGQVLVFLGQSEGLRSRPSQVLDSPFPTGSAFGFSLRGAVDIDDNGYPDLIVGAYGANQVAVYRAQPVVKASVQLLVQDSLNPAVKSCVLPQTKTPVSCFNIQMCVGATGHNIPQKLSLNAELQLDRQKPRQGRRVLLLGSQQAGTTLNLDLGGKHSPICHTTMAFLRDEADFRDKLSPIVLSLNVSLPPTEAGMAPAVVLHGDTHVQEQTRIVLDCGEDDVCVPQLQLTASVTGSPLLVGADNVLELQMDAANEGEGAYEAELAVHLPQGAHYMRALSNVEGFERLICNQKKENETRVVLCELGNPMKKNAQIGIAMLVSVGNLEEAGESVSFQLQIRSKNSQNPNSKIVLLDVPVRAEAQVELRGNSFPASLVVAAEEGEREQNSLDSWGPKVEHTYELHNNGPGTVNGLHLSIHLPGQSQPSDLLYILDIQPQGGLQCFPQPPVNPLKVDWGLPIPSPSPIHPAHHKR
- Sequence (P08514 891-1039 limits assumed): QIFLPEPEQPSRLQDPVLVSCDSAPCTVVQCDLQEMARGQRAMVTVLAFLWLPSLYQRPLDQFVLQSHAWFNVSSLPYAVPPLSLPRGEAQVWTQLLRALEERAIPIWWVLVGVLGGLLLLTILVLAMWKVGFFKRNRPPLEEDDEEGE
- Protocol Summary: Displacement of biotinylated fibrinogen from human alpha2b-beta3 receptor after 2 hrs by chemiluminescence assay
Parameter: IC50. Scope: all listed entries.
Numeric only. Scale: µM

[
  {
    "Compound": "CCOC(=O)CN(Cc1ccccc1)c1ccc2c(c1)N(C)CC(C)(COc1ccc(C(=N)N)cc1)O2 (stereo not given)",
    "Unit Abbrev": "µM",
    "IC50": 54
  }
]

Please fill in: IC50 reported for CN1CC(C)(COc2ccc(C(=N)N)cc2)Oc2ccc(N(CC(=O)O)Cc3cc(F)cc(F)c3)cc21 (stereo not given) = 2.5

----------
Measured pKi on Prothrombin (Homo sapiens, UniProt P00734) follows.
Expect pKi as a plain number equal to -log10 of the molar concentration.

// pKi (Prothrombin (Homo sapiens, UniProt P00734)) for CN1CC(C)(COc2ccc(C(=N)N)cc2)Oc2ccc(N(CC(=O)O)Cc3ccc(F)cc3)cc21 (centres undefined) = 6.12

Lab entry: Prothrombin (Homo sapiens, UniProt P00734) assay, molecule CN1CC(C)(COc2ccc(C(=N)N)cc2)Oc2ccc(N(CC(=O)O)Cc3cc(F)cc(F)c3)cc21 (centres undefined) , pKi = 6.12

# lookup: CN1CC(C)(COc2ccc(C(=N)N)cc2)Oc2cc(N(CC(=O)O)Cc3cccc(F)c3)ccc21 (centres undefined) on Prothrombin (Homo sapiens, UniProt P00734), pKi = 6.49

Case CCOC(=O)CN(Cc1cccc(F)c1)c1ccc2c(c1)N(C)CC(C)(COc1ccc(C(=N)N)cc1)O2 (centres undefined) , Prothrombin (Homo sapiens, UniProt P00734), pKi recorded as 6.10

----------
- Protocol Summary: Selectivity ratio of Ki for trypsin to Ki for thrombin
Ratio Ki listing for selected compounds.

# example entries with known answers
[
  {
    "Compound": "CN1CC(C)(COc2ccc(C(=N)N)cc2)Oc2cc(N(CC(=O)O)Cc3ccc(F)c(F)c3)ccc21 (centres undefined)",
    "Experimental Value": 1.6
  },
  {
    "Compound": "CN1CC(C)(COc2ccc(C(=N)N)cc2)Oc2cc(N(CC(=O)O)Cc3cc(F)cc(F)c3)ccc21 (centres undefined)",
    "Experimental Value": 6.5
  },
  {
    "Compound": "CN1CC(C)(COc2ccc(C(=N)N)cc2)Oc2cc(N(CC(=O)O)Cc3cccc(F)c3)ccc21 (centres undefined)",
    "Experimental Value": 5
  }
]

Then this compound:
Entry CN1CC(C)(COc2ccc(C(=N)N)cc2)Oc2ccc(N(CC(=O)O)Cc3ccc(F)c(F)c3)cc21 (centres undefined) , Ratio Ki reported as 1.7

----------
Entries annotated with measured pIC50
- Tested On: Integrin alpha-IIb/beta-3 (Homo sapiens, UniProt P05106+P08514)
- Protocol Summary: Displacement of biotinylated fibrinogen from human alpha2b-beta3 receptor after 2 hrs by chemiluminescence assay
# pIC50 = -log10(concentration in molar units)

Answered examples (5):
[
  {
    "Compound": "CN1CC(C)(COc2ccc(C(=N)N)cc2)Oc2ccc(N(Cc3cccc(F)c3)C(=O)C(=O)O)cc21 (configuration not stated)",
    "pIC50": 5.66
  },
  {
    "Compound": "CCOC(=O)C(=O)N(Cc1ccccc1)c1ccc2c(c1)OC(C)(COc1ccc(C(=N)N)cc1)CN2C (configuration not stated)",
    "pIC50": 4.28
  },
  {
    "Compound": "CN1CC(C)(COc2ccc(C(=N)N)cc2)Oc2cc(N(Cc3cc(F)cc(F)c3)C(=O)C(=O)O)ccc21 (configuration not stated)",
    "pIC50": 4.51
  },
  {
    "Compound": "CN1CC(C)(COc2ccc(C(=N)N)cc2)Oc2cc(N(CC(=O)O)Cc3ccc(F)c(F)c3)ccc21 (configuration not stated)",
    "pIC50": 4.10
  },
  {
    "Compound": "CN1CC(C)(COc2ccc(C(=N)N)cc2)Oc2ccc(N(Cc3cc(F)cc(F)c3)C(=O)C(=O)O)cc21 (configuration not stated)",
    "pIC50": 5.47
  }
]

Simply: CCOC(=O)C(=O)N(Cc1ccccc1)c1ccc2c(c1)N(C)CC(C)(COc1ccc(C(=N)N)cc1)O2 (configuration not stated) , Integrin alpha-IIb/beta-3 (Homo sapiens, UniProt P05106+P08514), pIC50 = 4.31

Item CN1CC(C)(COc2ccc(C(=N)N)cc2)Oc2cc(N(Cc3ccc(F)c(F)c3)C(=O)C(=O)O)ccc21 (configuration not stated) ; assay system Integrin alpha-IIb/beta-3 (Homo sapiens, UniProt P05106+P08514); pIC50 reported as 4.51

Entry CN1CC(C)(COc2ccc(C(=N)N)cc2)Oc2ccc(N(Cc3ccc(F)c(F)c3)C(=O)C(=O)O)cc21 (configuration not stated) : pIC50 on Integrin alpha-IIb/beta-3 (Homo sapiens, UniProt P05106+P08514) = 5.60
